Biological target: human AspH (His6-AspH315–758) (Homo sapiens)
Construct: N-Terminally His6-tagged human AspH315–758 (His6-AspH315–758) was produced in Escherichia coli BL21 (DE3) cells; made in house; host or cells: Escherichia coli BL21 (DE3), pET-28a(+) vector
Assay: SPE-MS AspH inhibition assay (hFX-CP101-119 substrate hydroxylation)
Assay type: biochemical
Conditions: AspH-inhibitor screening, 384-well Plate 1
Structures can show the parent of a compound that is named as a salt.
Kindly supply the reported Plate 1 (% inhibition) values for the records listed here.
Form entry: value (%) — number only.

Ask | Missing value: Plate 1 (% inhibition), human AspH (His6-AspH315–758) (Homo sapiens), entry CC[C@H](C)C(=O)O[C@H]1C[C@H](O)C=C2C=C[C@H](C)[C@H](CC[C@@H](O)C[C@@H](O)CC(=O)O)[C@H]21 . Fill in?
Reply | 12.19

Ask | Please provide the recorded Plate 1 (% inhibition) for O=C(O)CC[C@H]1CC[C@@](c2cc(F)ccc2F)(S(=O)(=O)c2ccc(Cl)cc2)CC1 , tested on human AspH (His6-AspH315–758) (Homo sapiens).
Reply | 11.87

Ask | So what Plate 1 (% inhibition) did CO[C@H]1C[C@@H]2CC[C@@H](C)[C@@](O)(O2)C(=O)C(=O)N2CCCC[C@H]2C(=O)O[C@H]([C@H](C)C[C@@H]2CC[C@@H](O)[C@H](OC)C2)CC(=O)[C@H](C)/C=C(\C)[C@@H](O)[C@@H](OC)C(=O)[C@H](C)C[C@H](C)/C=C/C=C/C=C/1C [Rapamycin (sirolimus)] get with human AspH (His6-AspH315–758) (Homo sapiens)?
Reply | -16.43

Ask | Request: Plate 1 (% inhibition), test system human AspH (His6-AspH315–758) (Homo sapiens), entry CC[C@@H]1C(=O)N(C)c2cnc(Nc3ccc(C(=O)N[C@H]4CC[C@H](N5CCN(CC6CC6)CC5)CC4)cc3OC)nc2N1C(C)C
Reply | -9.00

Ask | Tell me reported Plate 1 (% inhibition) for Cn1cc(CNCC2CCN(c3ncc(C(=O)NO)cn3)CC2)c2ccccc21 , tested with human AspH (His6-AspH315–758) (Homo sapiens).
Reply | -7.35

Ask | Enter reported Plate 1 (% inhibition) observed with human AspH (His6-AspH315–758) (Homo sapiens) for C[C@@H](CN1CC(=O)NC(=O)C1)N1CC(=O)NC(=O)C1
Reply | 16.70

Ask | Given the entry C/C(=C\c1csc(C)n1)[C@@H]1C[C@@H]2O[C@]2(C)CCC[C@H](C)[C@H](O)[C@@H](C)C(=O)C(C)(C)[C@@H](O)CC(=O)O1 , what Plate 1 (% inhibition) was observed with human AspH (His6-AspH315–758) (Homo sapiens)?
Reply | -5.33

Ask | Which Plate 1 (% inhibition) is reported with human AspH (His6-AspH315–758) (Homo sapiens) for this entry: CC[C@@]1(O)C(=O)OCc2c1cc1n(c2=O)Cc2cc3ccccc3nc2-1 ?
Reply | 4.52

Ask | Fill in the recorded Plate 1 (% inhibition) for this compound, with human AspH (His6-AspH315–758) (Homo sapiens) as test system: Nc1ncnc2c1c(COc1cccc(Cl)c1)nn2C1CCOCC1 [PF4800567 hydrochloride]
Reply | -0.85

Ask | I'm curious: which Plate 1 (% inhibition) was measured for O=C1CCC(N2C(=O)c3ccccc3C2=O)C(=O)N1 (centres unmarked) [Thalidomide] tested on human AspH (His6-AspH315–758) (Homo sapiens)?
Reply | 3.16

Ask | Short answer please: Plate 1 (% inhibition), human AspH (His6-AspH315–758) (Homo sapiens), entry CN(Cc1cnc2nc(N)nc(N)c2n1)c1ccc(C(=O)N[C@@H](CCC(=O)O)C(=O)O)cc1 [Methotrexate]
Reply | 15.11

Ask | What is its Plate 1 (% inhibition) for human AspH (His6-AspH315–758) (Homo sapiens)? Entry: O=C1CN2Cc3c(ccc(Cl)c3Cl)N=C2N1 [Anagrelide]
Reply | 0.57

Ask | Value wanted: Plate 1 (% inhibition) (human AspH (His6-AspH315–758) (Homo sapiens)) of entry CCN1CCN(c2ccc(Nc3cc(N(C)C(=O)Nc4c(Cl)c(OC)cc(OC)c4Cl)ncn3)cc2)CC1
Reply | -4.10

Ask | Could you share what Plate 1 (% inhibition) was measured for CCN(CC)CCNC(=O)c1c(C)[nH]c(/C=C2\C(=O)Nc3ccc(F)cc32)c1C , tested on human AspH (His6-AspH315–758) (Homo sapiens)?
Reply | -40.27

---

Give measured Plate 1-duplicate (% inhibition) for each item. Keep answers brief.
Target: human AspH (His6-AspH315–758) (Homo sapiens, UniProt Q12797)
Construct: N-Terminally His6-tagged human AspH315–758 (His6-AspH315–758) was produced in Escherichia coli BL21 (DE3) cells; made in house; host or cells: Escherichia coli BL21 (DE3), pET-28a(+) vector
Sequence (Q12797 315-758): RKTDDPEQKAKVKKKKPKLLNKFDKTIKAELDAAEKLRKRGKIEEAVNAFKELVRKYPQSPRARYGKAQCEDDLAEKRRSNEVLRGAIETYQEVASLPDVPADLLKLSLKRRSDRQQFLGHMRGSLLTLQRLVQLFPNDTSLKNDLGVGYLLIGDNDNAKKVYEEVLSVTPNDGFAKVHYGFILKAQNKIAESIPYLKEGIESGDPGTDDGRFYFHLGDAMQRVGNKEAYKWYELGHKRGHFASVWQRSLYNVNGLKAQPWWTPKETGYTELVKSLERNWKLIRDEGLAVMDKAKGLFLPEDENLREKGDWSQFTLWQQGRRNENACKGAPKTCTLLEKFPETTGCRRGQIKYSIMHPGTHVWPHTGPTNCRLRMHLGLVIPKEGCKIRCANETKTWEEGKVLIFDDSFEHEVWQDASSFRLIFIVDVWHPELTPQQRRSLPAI
Experiment: SPE-MS AspH inhibition assay (hFX-CP101-119 substrate hydroxylation)
Assay type: biochemical
Details: AspH-inhibitor screening, Plate 1-duplicate
Where a name gives a salt, the structure may show the parent alone.
Hi, when you answer, please include the unit after the number. Thanks!

Ask | Requested field: Plate 1-duplicate (% inhibition). Item: COc1cc2c(N3CCN(C(=O)Nc4ccc(OC(C)C)cc4)CC3)ncnc2cc1OCCCN1CCCCC1 [Tandutinib]
Reply | -8.54%

Ask | What does the data say about its Plate 1-duplicate (% inhibition)? Entry: CCN(CCO)CCCOc1ccc2c(Nc3cc(CC(=O)Nc4cccc(F)c4)[nH]n3)ncnc2c1 [AZD1152-HQPA]
Reply | 0.26%

Ask | Recorded Plate 1-duplicate (% inhibition) for N#Cc1ccc(C(c2ccc(C#N)cc2)n2cncn2)cc1 [Letrozole] , please?
Reply | 3.67%

Ask | Find the recorded Plate 1-duplicate (% inhibition) belonging to C=CCc1cccc(/C=N/NC(=O)CN2CCN(Cc3ccccc3)CC2)c1O [PAC-1] and report it.
Reply | -0.37%

Ask | Find the recorded Plate 1-duplicate (% inhibition) belonging to Nc1nc(Cl)nc2c1ncn2[C@H]1C[C@H](O)[C@@H](CO)O1 [Cladribine] and report it.
Reply | 3.70%

Ask | Which measured Plate 1-duplicate (% inhibition) value corresponds to CCNC(=O)CCC/C=C\C[C@@H]1[C@@H](/C=C/[C@@H](O)CCc2ccccc2)[C@H](O)C[C@@H]1O [Bimatoprost] ?
Reply | -1.99%

Ask | I have this molecule here, C=CCn1c(=O)c2cnc(Nc3ccc(N4CCN(C)CC4)cc3)nc2n1-c1cccc(C(C)(C)O)n1 [MK1775] , and I need its recorded Plate 1-duplicate (% inhibition).
Reply | 1.85%

Ask | If you can, please state the reported Plate 1-duplicate (% inhibition) value of O=C(c1ccc(OCCN2CCCCC2)cc1)c1c(-c2ccc(O)cc2)sc2cc(O)ccc12 [Raloxifene] .
Reply | 14.45%

Ask | Fill blank: measured Plate 1-duplicate (% inhibition) of the molecule N#CCNC(=O)c1ccc(-c2ccnc(Nc3ccc(N4CCOCC4)cc3)n2)cc1 [CYT-387_Momelotinib] is ____.
Reply | 4.84%

Ask | Entry Nc1ccccc1NC(=O)c1ccc(CNC(=O)OCc2cccnc2)cc1 [Entinostat] : reported Plate 1-duplicate (% inhibition) = ?
Reply | -4.09%

Ask | Look up Plate 1-duplicate (% inhibition): COc1cc(O)c2c(c1)/C=C/C[C@H](O)[C@H](O)C(=O)/C=C\C[C@H](C)OC2=O [(5Z)-7-Oxozeaenol]
Reply | 23.66%

Ask | Recorded Plate 1-duplicate (% inhibition) of Oc1nc(-c2ccc(C(F)(F)F)cc2)nc2c1CSCC2 [XAV-939] , please.
Reply | 0.58%

Ask | Fill in: Plate 1-duplicate (% inhibition) of CC1(C)CCC(c2ccc(Cl)cc2)=C(CN2CCN(c3ccc(C(=O)NS(=O)(=O)c4ccc(N[C@H](CCN5CCOCC5)CSc5ccccc5)c(S(=O)(=O)C(F)(F)F)c4)cc3)CC2)C1 [ABT-263 (Navitoclax)] is ___
Reply | 90.05%

Ask | Query: Plate 1-duplicate (% inhibition); subject: COc1cc2c(Nc3ccc(Br)cc3F)ncnc2cc1OCC1CCN(C)CC1 [Vandetanib]
Reply | 1.85%

Ask | Any idea what Plate 1-duplicate (% inhibition) was measured for Cn1cc(C[C@@H](N)C(=O)O)c2ccccc21 [1-methyl-D-tryptophan, 95%] ?
Reply | 9.06%

Ask | Value lookup for Plate 1-duplicate (% inhibition); key = O=P(O)(O)C(O)(Cn1ccnc1)P(=O)(O)O [Zoledronic acid]
Reply | 13.13%

Ask | Item under review: C[C@@H](CN1CC(=O)NC(=O)C1)N1CC(=O)NC(=O)C1 [Dexrazoxane] . Reported Plate 1-duplicate (% inhibition)?
Reply | 14.98%

Ask | Param item = Nc1nc(Cl)nc2c1ncn2[C@@H]1O[C@H](CO)[C@@H](O)[C@@H]1F [Clofarabine] ; retrieve measured Plate 1-duplicate (% inhibition).
Reply | 3.66%

Ask | Field request: Plate 1-duplicate (% inhibition) | item: N#Cc1ccc(COC[C@H]2O[C@@H](n3c(NCc4ccc(Cl)c(Cl)c4)nc4c(N)ncnc43)[C@H](O)[C@@H]2O)cc1 [VER 155008]
Reply | 7.21%

Ask | Plate 1-duplicate (% inhibition) for COc1cc(Nc2ncc(F)c(Nc3ccc4c(n3)NC(=O)C(C)(C)O4)n2)cc(OC)c1OC [R406_Tamatinib] ?
Reply | 0.72%

Ask | Name the recorded Plate 1-duplicate (% inhibition) for CC(=O)O[C@H]1C(=O)[C@@]2(C)[C@H]([C@H](OC(=O)c3ccccc3)[C@]3(O)C[C@H](OC(=O)[C@H](O)[C@@H](NC(=O)c4ccccc4)c4ccccc4)C(C)=C1C3(C)C)[C@]1(OC(C)=O)CO[C@@H]1C[C@@H]2O [Paclitaxel] .
Reply | -2.08%

Ask | Can you look up the measured Plate 1-duplicate (% inhibition) of CN(C)CCN1C(=O)c2cccc3cc(N)cc(c23)C1=O [Amonafide] for me?
Reply | 3.28%

Ask | I have this molecule here, C[C@]12C=CC(=O)C=C1CC[C@@H]1[C@@H]2C(=O)C[C@@]2(C)[C@H]1CC[C@]2(O)C(=O)CO [Prednisone] , and I need its recorded Plate 1-duplicate (% inhibition).
Reply | 2.01%

Ask | Give the measured Plate 1-duplicate (% inhibition) of Cc1cc(Nc2nc(N[C@@H](C)c3ncc(F)cn3)ncc2Cl)n[nH]1 [AZD1480] .
Reply | 6.11%

Ask | Recorded Plate 1-duplicate (% inhibition) of CC(=O)[C@]1(O)Cc2c(O)c3c(c(O)c2[C@@H](O[C@H]2C[C@H](N)[C@H](O)[C@H](C)O2)C1)C(=O)c1ccccc1C3=O [Idarubicin HCl] , please.
Reply | 5.28%

Ask | Consider the molecule shown here: CC(=O)N(O)CCCCCNC(=O)CCC(=O)N(O)CCCCCNC(=O)CCC(=O)N(O)CCCCCN [Deferoxamine mesylate] What is its recorded Plate 1-duplicate (% inhibition)?
Reply | 7.26%

Ask | GET /values?readout=Plate 1-duplicate (% inhibition)&item= CC(C)(C#N)c1cc(Cn2cncn2)cc(C(C)(C)C#N)c1 [Anastrozole]
Reply | 3.84%

Ask | Look up Plate 1-duplicate (% inhibition): Nc1nccc(-c2c(-c3ccc(F)cc3)ncn2C2CCCCC2)n1 [PF670462]
Reply | 29.89%

Ask | Give the measured Plate 1-duplicate (% inhibition) of CC(=O)O[C@]1(C(C)=O)CC[C@H]2[C@@H]3C=C(C)C4=CC(=O)CC[C@]4(C)[C@H]3CC[C@@]21C [Megestrol acetate] .
Reply | 7.27%

Ask | Entry CNC(=O)c1ccc(N2C(=S)N(c3ccc(C#N)c(C(F)(F)F)c3)C(=O)C23CCC3)cc1F [RD162] has what Plate 1-duplicate (% inhibition)?
Reply | -2.20%

Ask | I would be grateful if you could share the reported Plate 1-duplicate (% inhibition) for Cc1nc(Nc2ncc(C(=O)Nc3c(C)cccc3Cl)s2)cc(N2CCN(CCO)CC2)n1 [Dasatinib] .
Reply | -21.12%
